Assay: fluorescent artefacts in myeloid progenitor cells – cell-based, flow cytometry, GFP/APC, Cherry Pick01, artefact control for AML myeloid differentiation project, confirmation (AID 651707);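 further: range taken on the double positive population between DMSO and positive control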
Conditions: ER-HoxA9 myeloid progenitors, no estrogen, GFP autofluorescence flow cytometry; vehicle wells 0%, positive control 100%
The whole screen tested about 2,300 compounds, of which about 170 (7.4%) were called active.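 How the source made its calls: active means over 5% cells positive for green fluorescent reporter, or over 2% positive for both it and APC stain; inactive means the rest, inconclusive results apart.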 Only a sample is shown.
Outcomes: active, inactive

{"molecule": "Cc1cc(C)c(S(=O)(=O)NCC2CCC(C(=O)NCc3ccc4c(c3)OCO4)CC2)c(C)c1 (centres undefined)", "category-label": "inactive"}
{"molecule": "Cn1c2ccccc2c2cc(/C=C(\\NC(=O)c3ccccc3)C(=O)NCC(=O)O)ccc21", "category-label": "inactive"}
{"molecule": "O=C(NCCN=C1NS(=O)(=O)c2ccccc21)c1ccc(S(=O)(=O)N2CCOCC2)cc1", "category-label": "inactive"}
{"molecule": "Fc1cccc(Cl)c1CSc1ccc(-c2ccco2)nn1", "category-label": "inactive"}
{"molecule": "Cc1ccc(C(=O)NC2CCCC(C)C2C)cc1S(=O)(=O)N1CCCCC1 (centres undefined)", "category-label": "inactive"}
{"molecule": "CCOC(=O)c1c(-c2ccc(C)cc2)csc1/N=C(\\C)C1=C(O)c2ccccc2C1=O", "category-label": "inactive"}
{"molecule": "CC(=O)N1c2ccc(S(=O)(=O)N3CCCC(C(=O)Nc4cccc(F)c4)C3)cc2CC1C (centres undefined)", "category-label": "inactive"}
{"molecule": "CCN(CC)C(=O)CSC(Nc1cccc(F)c1)=C(C#N)C#N", "category-label": "active"}
{"molecule": "Cc1cccc(-n2c(SCC(=O)Nc3cccc(S(=O)(=O)NC4=NCCCCC4)c3)nc3ccccc3c2=O)c1C", "category-label": "inactive"}

---

Below is a list of entries, each paired with its recorded fluorescence response value.
Assay: fluorescent artefacts in myeloid progenitor cells – cell-based, flow cytometry, GFP/APC, Cherry Pick01, artefact control for AML myeloid differentiation project, confirmation (AID 651707);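 further: range taken on the double positive population between DMSO and positive control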
Details: ER-HoxA9 myeloid progenitors, no estrogen, GFP autofluorescence flow cytometry, hits give high values; vehicle wells 0%, positive control 100%
Out of some 2,300 compounds screened, about 170 (7.4%) were called active. The list is a sample of the results.
metric-name: fluorescence response (%)

{"compound": "COc1ccc(N(CC(=O)NC2CCCCCCC2)S(=O)(=O)c2c(C)nn(C)c2C)cc1", "result-value": 0}
{"compound": "COc1ccc(C(=O)N(Cc2ccccc2)c2ccc(C)cc2)cc1S(=O)(=O)N1CCOCC1", "result-value": 1.5}
{"compound": "CC1CCCC(NC(=O)CN2CCN(Cc3ccc(Cl)cc3)C2=O)C1C (stereo not given)", "result-value": 0}
{"compound": "CC(CNc1ccc([N+](=O)[O-])cc1)NC(=O)c1ccccc1Br (stereo not given)", "result-value": 0.4}
{"compound": "Cc1ccc2c(c1)c1ncn(Cc3ccc(F)cc3)c(=O)c1n2C", "result-value": 0}
{"compound": "Cc1nc(C)c(-c2nnc(-c3cccc(S(=O)(=O)N(C)C)c3)o2)cc1C(=O)NN", "result-value": 0.7}
{"compound": "CC(C)c1nc2ccc(C(=O)O)cc2[nH]1", "result-value": 0.4}
{"compound": "CC(C)OC(=O)CN1C(=O)C(=O)c2ccccc21", "result-value": 0.5}
{"compound": "CC1=C(C(N)=O)C(c2ccc3c(c2)OCO3)n2nc(-c3cccc(C)c3)nc2N1 (stereo not given)", "result-value": 0}
{"compound": "CCOC(=O)c1c(-c2ccccc2)oc2ccc(OCC(=O)NN)cc12", "result-value": 0}
